- SUBJECT OF TEST: Dihydrofolate reductase (Homo sapiens)
- ASSAY: Inhibitory activity against Leu22-Phe mutant human Dihydrofolate reductase
pKi: −log10 of the molar value.

>  <COMPOUND>
COc1ccc(OC)c(CCc2cccc3nc(N)nc(N)c23)c1

>  <pKi>
8.38

$$$$
>  <COMPOUND>
Nc1nc(N)c2cc(CNc3ccc(C(=O)NC(CCC(=O)O)C(=O)O)cc3)ccc2n1 (configuration not stated)

>  <pKi>
11.00

$$$$
>  <COMPOUND>
COc1ccc(OC)c(Cc2cnc3nc(N)nc(N)c3c2C)c1 [PIRITREXIM]

>  <pKi>
7.42

$$$$
>  <COMPOUND>
Nc1nc(N)c2c(CCc3ccccc3)cccc2n1

>  <pKi>
8.54

$$$$
>  <COMPOUND>
Nc1nc(N)c2c(C#Cc3ccccc3)cccc2n1

>  <pKi>
7.02

$$$$
>  <COMPOUND>
COc1cc(N(C)Cc2cccc3nc(N)nc(N)c23)cc(OC)c1OC

>  <pKi>
7.31

$$$$
>  <COMPOUND>
COc1ccc(OC)c(N(C)Cc2cccc3nc(N)nc(N)c23)c1

>  <pKi>
6.60

$$$$

---

- SUBJECT OF TEST: Dihydrofolate reductase (Pneumocystis carinii)
- Sequence (P16184 whole entry): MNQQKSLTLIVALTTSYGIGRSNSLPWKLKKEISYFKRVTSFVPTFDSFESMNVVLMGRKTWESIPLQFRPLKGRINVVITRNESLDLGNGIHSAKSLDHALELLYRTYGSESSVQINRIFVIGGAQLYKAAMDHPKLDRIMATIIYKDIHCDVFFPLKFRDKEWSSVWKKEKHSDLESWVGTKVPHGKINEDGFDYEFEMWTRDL
pIC50: −log10 of the molar value.
The entries below come with measured pIC50 values attached.
MEASUREMENT KIND: pIC50

>  <SMILES INPUT>
Nc1nc(N)c2c(C#Cc3ccccc3)cccc2n1

>  <MEASUREMENT KIND>
pIC50

>  <OBS VALUE>
< 4.52

$$$$
>  <SMILES INPUT>
COc1cc(N(C)Cc2cccc3nc(N)nc(N)c23)cc(OC)c1OC

>  <MEASUREMENT KIND>
pIC50

>  <OBS VALUE>
< 4.70

$$$$
>  <SMILES INPUT>
COc1ccc(OC)c(N(C)Cc2cccc3nc(N)nc(N)c23)c1

>  <MEASUREMENT KIND>
pIC50

>  <OBS VALUE>
< 4.40

$$$$
>  <SMILES INPUT>
COc1ccc(OC)c(NCc2cccc3nc(N)nc(N)c23)c1

>  <MEASUREMENT KIND>
pIC50

>  <OBS VALUE>
< 5.30

$$$$
>  <SMILES INPUT>
COc1ccc(OC)c(C#Cc2cccc3nc(N)nc(N)c23)c1

>  <MEASUREMENT KIND>
pIC50

>  <OBS VALUE>
< 4.74

$$$$
>  <SMILES INPUT>
COc1cc(NCc2cccc3nc(N)nc(N)c23)cc(OC)c1OC

>  <MEASUREMENT KIND>
pIC50

>  <OBS VALUE>
< 4.70

$$$$

---

- SUBJECT OF TEST: Bifunctional dihydrofolate reductase-thymidylate synthase (Toxoplasma gondii, UniProt Q07422)
- Sequence (Q07422 whole entry): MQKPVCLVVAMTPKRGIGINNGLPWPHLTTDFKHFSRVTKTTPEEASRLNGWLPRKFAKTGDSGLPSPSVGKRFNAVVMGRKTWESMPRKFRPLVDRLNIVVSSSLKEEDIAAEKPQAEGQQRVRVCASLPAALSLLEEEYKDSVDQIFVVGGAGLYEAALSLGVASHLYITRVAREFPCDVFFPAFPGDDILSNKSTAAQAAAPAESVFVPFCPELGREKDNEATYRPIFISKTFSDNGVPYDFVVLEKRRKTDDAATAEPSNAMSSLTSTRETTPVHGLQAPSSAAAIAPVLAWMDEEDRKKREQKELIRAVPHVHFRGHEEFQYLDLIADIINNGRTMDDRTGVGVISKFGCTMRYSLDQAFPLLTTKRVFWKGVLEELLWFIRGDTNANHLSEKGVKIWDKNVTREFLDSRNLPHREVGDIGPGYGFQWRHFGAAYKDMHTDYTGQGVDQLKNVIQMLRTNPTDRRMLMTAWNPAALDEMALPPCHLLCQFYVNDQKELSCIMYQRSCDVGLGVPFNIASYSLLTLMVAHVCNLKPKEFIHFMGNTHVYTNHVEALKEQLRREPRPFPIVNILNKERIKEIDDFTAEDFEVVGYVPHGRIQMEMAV
MEASUREMENT KIND: IC50

>  <SMILES INPUT>
COc1ccc(OC)c(C#Cc2cccc3nc(N)nc(N)c23)c1

>  <OBS VALUE>
> 18 µM

$$$$
>  <SMILES INPUT>
COc1cc(N(C)Cc2cccc3nc(N)nc(N)c23)cc(OC)c1OC

>  <OBS VALUE>
> 20 µM

$$$$
>  <SMILES INPUT>
COc1cc(NCc2cccc3nc(N)nc(N)c23)cc(OC)c1OC

>  <OBS VALUE>
> 20 µM

$$$$
>  <SMILES INPUT>
COc1ccc(OC)c(N(C)Cc2cccc3nc(N)nc(N)c23)c1

>  <OBS VALUE>
> 40 µM

$$$$
>  <SMILES INPUT>
Nc1nc(N)c2c(C#Cc3ccccc3)cccc2n1

>  <OBS VALUE>
> 30 µM

$$$$
>  <SMILES INPUT>
COc1ccc(OC)c(NCc2cccc3nc(N)nc(N)c23)c1

>  <OBS VALUE>
> 5 µM

$$$$

---

Dihydrofolate reductase (Rattus norvegicus, UniProt Q920D2) measurements of pIC50, listed per entry.
Sequence (Q920D2 whole entry): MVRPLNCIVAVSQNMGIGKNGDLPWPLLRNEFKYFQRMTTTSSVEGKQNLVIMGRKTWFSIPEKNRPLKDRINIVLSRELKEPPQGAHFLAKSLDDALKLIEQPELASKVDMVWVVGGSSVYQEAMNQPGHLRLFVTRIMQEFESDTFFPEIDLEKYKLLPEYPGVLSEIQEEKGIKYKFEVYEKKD
pIC50: −log10 of the molar value.

>  <SMILES INPUT>
COc1cc(N(C)Cc2cccc3nc(N)nc(N)c23)cc(OC)c1OC

>  <RELATIONAL OPERATOR>
=

>  <pIC50>
4.28

$$$$
>  <SMILES INPUT>
COc1ccc(OC)c(N(C)Cc2cccc3nc(N)nc(N)c23)c1

>  <RELATIONAL OPERATOR>
=

>  <pIC50>
4.08

$$$$
>  <SMILES INPUT>
Nc1nc(N)c2c(C#Cc3ccccc3)cccc2n1

>  <RELATIONAL OPERATOR>
<

>  <pIC50>
4.52

$$$$
>  <SMILES INPUT>
Nc1nc(N)c2c(/C=C/c3ccccc3)cccc2n1

>  <RELATIONAL OPERATOR>
=

>  <pIC50>
5.82

$$$$
